Ref: patent US6664284B2

assay: Solubility of loop diuretics in the acidic to maximum neutral aqueous formulations; details: acidic to neutral aqueous carvedilol injection solutions, aqueous with cosolvent or surfactant or cyclodextrin
Assay Endpoint: solubility

>>> data_value("NS(=O)(=O)c1cc(-c2nnn[nH]2)c(NCc2cccs2)cc1Cl [azosemide]")
"1 to 3 mg/mL"

###

assay: physchem; details: aqueous with cosolvent or surfactant or cyclodextrin
Assay Endpoint: solubility

>>> data_value("Cc1cccc(Nc2ccncc2S(=O)(=O)NC(=O)NC(C)C)c1 [Torasemide]")
"1000 to 2000 µg/mL"

###

assay: physchem; settings: pH 6.1, water
Assay Endpoint: solubility

>>> data_value("COc1ccccc1OCCNCC(O)COc1cccc2[nH]c3ccccc3c12 (stereo not shown)")
"~2 µg/mL"
